- System: HepG2
- PROCEDURE_TEXT: Cytotoxicity against human HepG2 cells after 96 hrs by MTT assay
- Assay type: functional, cell-based
- TEST_PARAMETERS: HepG2, 96 h
OUTCOME_MEASURE: IC50 (µM)
The figure you give is taken to be in µM; do not add the unit.

Worked cases, answers included:
CC(=O)O[C@H]1C(=O)[C@@]2(C)[C@H]([C@H](OC(=O)c3ccccc3)[C@]3(O)C[C@H](OC(=O)[C@H](O)[C@@H](NC(=O)c4ccccc4)c4ccccc4)C(C)=C1C3(C)C)[C@]1(OC(C)=O)CO[C@@H]1C[C@@H]2O [PACLITAXEL] : 0.0102
C[C@@H]1CC[C@H]2C(C)(C)[C@H](O)[C@H](O)C[C@]2(C)[C@@]12Cc1c(O)cc3c(c1O2)C[C@H]1OCc2cc(O)c4c(c2[C@H](O1)[C@H]3O)O[C@]1(C4)[C@H](C)CC[C@H]2C(C)(C)[C@H](O)[C@H](O)C[C@@]21C : 19.3
C[C@@H]1CC[C@H]2C(C)(C)[C@H](O)CC[C@]2(C)[C@@]12Cc1c(O)cc3c(c1O2)[C@@H]1O[C@@H](Cc2c(cc(O)c4c2O[C@]2(C4)[C@H](C)CC[C@H]4C(C)(C)[C@H](O)[C@H](O)C[C@@]42C)[C@@H]1O)OC3 : 11.9

query: Find IC50 (HepG2) for the entry `CC(=O)O[C@@H]1[C@H](O)C[C@@]2(C)[C@@H](CC[C@@H](C)[C@]23Cc2c(O)cc4c(c2O3)C[C@H]2OCc3cc(O)c5c(c3[C@H](O2)[C@H]4O)O[C@]2(C5)[C@H](C)CC[C@H]3C(C)(C)[C@H](O)CC[C@@]32C)C1(C)C`
result: 19.3

* * *

- System: Daoy
- PROCEDURE_TEXT: Cytotoxicity against human DaOY cells after 96 hrs by MTT assay
- Format: functional, cell-based
The entries below are paired with their reported IC50.

Use these answered entries as a reference point.
CC(=O)O[C@@H]1[C@H](O)C[C@@]2(C)[C@@H](CC[C@@H](C)[C@]23Cc2c(O)cc4c(c2O3)C[C@H]2OCc3cc(O)c5c(c3[C@H](O2)[C@H]4O)O[C@]2(C5)[C@H](C)CC[C@H]3C(C)(C)[C@H](O)CC[C@@]32C)C1(C)C : 4.2 µM
C[C@@H]1CC[C@H]2C(C)(C)[C@H](O)[C@H](O)C[C@]2(C)[C@@]12Cc1c(O)cc3c(c1O2)C[C@H]1OCc2cc(O)c4c(c2[C@H](O1)[C@H]3O)O[C@]1(C4)[C@H](C)CC[C@H]2C(C)(C)[C@H](O)[C@H](O)C[C@@]21C : 14.6 µM
C[C@@H]1CC[C@H]2C(C)(C)[C@H](O)CC[C@]2(C)[C@@]12Cc1c(O)cc3c(c1O2)[C@@H]1O[C@@H](Cc2c(cc(O)c4c2O[C@]2(C4)[C@H](C)CC[C@H]4C(C)(C)[C@H](O)[C@H](O)C[C@@]42C)[C@@H]1O)OC3 : 2.8 µM

Read the next record carefully.
query: Suppose we examine the compound `CC(=O)O[C@H]1C(=O)[C@@]2(C)[C@H]([C@H](OC(=O)c3ccccc3)[C@]3(O)C[C@H](OC(=O)[C@H](O)[C@@H](NC(=O)c4ccccc4)c4ccccc4)C(C)=C1C3(C)C)[C@]1(OC(C)=O)CO[C@@H]1C[C@@H]2O` ; what IC50 value has been reported?
result: 0.002 µM
